- Test system: HPPD Seq ID 67 ID10
- protocolDescription: HPPD activity assay;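 note: reaction started with 4-HPP at 0.05 mM after 30 min preincubation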
- Assay type: biochemical, Zea mays
- conditionDetails: HPPD enzyme Seq ID 67 ID10
Each entry below lists one item and its recorded TI normalized to Arabidopsis HPPD value.
observable: TI normalized to Arabidopsis HPPD

molecule	tgt	readoutValue
Cc1c(C(=O)c2cnn(C)c2O)ccc(S(C)(=O)=O)c1C1=NOCC1	HPPD Seq ID 67 ID10	120.8
CS(=O)(=O)c1ccc(C(=O)C2C(=O)CCCC2=O)c([N+](=O)[O-])c1	HPPD Seq ID 67 ID10	22.9
CS(=O)(=O)c1ccc(C(=O)C2C(=O)CCCC2=O)c(Cl)c1COCC(F)(F)F	HPPD Seq ID 67 ID10	26
COCCOCc1nc(C(F)(F)F)ccc1C(=O)C1=C(O)C2CCC(C2)C1=O (stereo not shown)	HPPD Seq ID 67 ID10	20.1

---

- tgt: Arabidopsis HPPD M335H, P336G, E363Q (Arabidopsis thaliana, UniProt P93836, E363Q/M335H/P336G)
- Construct: His6 (N); made in house; host or cells: E. coli BL21 (DE3)
- Sequence (P93836 whole entry M335H/P336G/E363Q): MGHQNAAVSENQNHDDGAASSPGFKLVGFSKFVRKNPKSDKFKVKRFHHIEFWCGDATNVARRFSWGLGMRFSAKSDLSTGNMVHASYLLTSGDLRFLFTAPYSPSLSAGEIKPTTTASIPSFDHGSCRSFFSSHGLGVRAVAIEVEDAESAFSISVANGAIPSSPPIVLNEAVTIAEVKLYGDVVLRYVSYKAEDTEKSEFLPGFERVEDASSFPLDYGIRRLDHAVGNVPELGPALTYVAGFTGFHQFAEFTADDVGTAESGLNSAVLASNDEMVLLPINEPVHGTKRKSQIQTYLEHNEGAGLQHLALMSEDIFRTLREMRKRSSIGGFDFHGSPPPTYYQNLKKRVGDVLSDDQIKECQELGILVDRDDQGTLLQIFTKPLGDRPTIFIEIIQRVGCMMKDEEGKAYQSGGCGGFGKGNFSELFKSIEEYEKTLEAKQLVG
- Format: biochemical
- conditionDetails: Arabidopsis HPPD variant M335H, normalized on wild-type

molecule	Normalized tolerance index (TI)
Cc1c(C(=O)c2cnn(C)c2O)ccc(S(C)(=O)=O)c1C1=NOCC1 [Inhibitor 1]	3
COCCOCc1nc(C(F)(F)F)ccc1C(=O)C1=C(O)C2CCC(C2)C1=O (stereo not shown) [Inhibitor 3]	0.1
CS(=O)(=O)c1ccc(C(=O)C2C(=O)CCCC2=O)c(Cl)c1COCC(F)(F)F [Inhibitor 4]	0.1
CS(=O)(=O)c1ccc(C(=O)C2C(=O)CCCC2=O)c([N+](=O)[O-])c1 [Inhibitor 2]	0.1

---

- tgt: Arabidopsis HPPD M335H, P336A, E363Q (Arabidopsis thaliana, UniProt P93836, E363Q/M335H/P336A)
- Construct: His6 (N); made in house; host or cells: E. coli BL21 (DE3)
- Sequence (P93836 whole entry M335H/P336A/E363Q): as the sequence (P93836 whole entry M335H/P336G/E363Q) above, with G336A counted along it
- Format: biochemical
- conditionDetails: Arabidopsis HPPD variant M335H, normalized on wild-type
Each entry below lists one item and its recorded Normalized tolerance index (TI) value.
observable: Normalized tolerance index (TI)

molecule	readoutValue
CS(=O)(=O)c1ccc(C(=O)C2C(=O)CCCC2=O)c([N+](=O)[O-])c1 [Inhibitor 2]	0.3
CS(=O)(=O)c1ccc(C(=O)C2C(=O)CCCC2=O)c(Cl)c1COCC(F)(F)F [Inhibitor 4]	0.3
COCCOCc1nc(C(F)(F)F)ccc1C(=O)C1=C(O)C2CCC(C2)C1=O (stereo not shown) [Inhibitor 3]	0.5
Cc1c(C(=O)c2cnn(C)c2O)ccc(S(C)(=O)=O)c1C1=NOCC1 [Inhibitor 1]	6.4
